Attribution: patent US20230279131A1

Can you tell me Binding Ratio (Sample over unstained MFIs) for the items I'm about to list?
# Assayed system: T1, human IL-2Rγ expressed on cells (NK-92, Jurkat) (human) (UniProt P31785)
# T1 sequence (looked up): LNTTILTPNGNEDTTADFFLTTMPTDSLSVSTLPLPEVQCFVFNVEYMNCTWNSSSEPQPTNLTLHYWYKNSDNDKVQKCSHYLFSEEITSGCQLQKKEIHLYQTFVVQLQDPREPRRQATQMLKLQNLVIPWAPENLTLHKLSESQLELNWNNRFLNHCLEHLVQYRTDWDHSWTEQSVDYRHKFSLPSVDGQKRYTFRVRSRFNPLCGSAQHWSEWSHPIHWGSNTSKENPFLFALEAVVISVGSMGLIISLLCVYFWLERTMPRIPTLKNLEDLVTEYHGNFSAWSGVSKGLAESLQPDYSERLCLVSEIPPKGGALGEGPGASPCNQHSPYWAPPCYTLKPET
# Protocol summary: flow cytometry on NK-92 cells (endogenous human IL-2Rg), antibody 10 ug/ml
One number for each entry.

Some solved entries appear below for comparison.
H4H13538P (antibody, human IgG4 S228P, kappa, V domains shown) VH: EVQLVESGGGLVQPGGSLGLSCAASGFTFSNYAMSWVRQAPGKGLEWVSAVSGGGGGTYYADSVKGRFTISRDNSKNTVLLQMNSLRAEDTAVYYCARGRTGGLDYWGPGTLVTVSS VL: DVVMTQSPLSLPVIFGQPASISCRSSQSLVDSDGNTYLNWLQQRPGQSPRRLIYEVSNRDSGVPDRFSGSGSGTDFTLTISRVEAEDVGIYYCMQGTRWPPTFGGGTKVEIKR :: 1
H4H13541P (antibody, human IgG4 S228P, kappa, V domains shown) VH: EVQLVESGGGVVRPGGSLRLSCAASGFIFDDYDMSWVRQPPGRGLEWVSGIDWFGGTRGYADSMKGRFTISRDNAKNSLYLQMNSLRVEDTAFYYCARGGAIVGAVTPFDYWGQGTLVTVSS VL: DIQMTQSPSSLSASVGNRVTLSCRASQSINTYLSWYQQRPGKAPKLLIYAASSLQSGVPSRFSGSGAGTDFTLTISSLQPEDFATYYCQQSYSAPLTFGGGTKVEIKR :: 37

Hey, can you go through the list below and give me Binding Ratio (Sample over unstained MFIs) for every item?
1. H4H12863P (antibody, human IgG4 S228P, kappa, V domains shown) VH: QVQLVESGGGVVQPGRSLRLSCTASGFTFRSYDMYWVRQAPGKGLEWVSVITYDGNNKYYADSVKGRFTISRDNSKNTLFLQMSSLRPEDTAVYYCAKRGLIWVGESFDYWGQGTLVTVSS VL: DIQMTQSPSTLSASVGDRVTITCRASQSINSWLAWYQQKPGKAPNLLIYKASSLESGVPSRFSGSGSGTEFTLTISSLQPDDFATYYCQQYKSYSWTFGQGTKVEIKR
2. H4H12900P (antibody, human IgG4 S228P, kappa, V domains shown) VH: QVQLVESGGGLVKPGGSLRLSCEASGFTFNDFYMTWIRQAPGKGLEWIAYISKSGDKMRYADSVKGRFSTSRDNAKNSLSLQMNSLRAEDTAVYYCARFYGDIWGQGTLVTVSS VL: DIQLTQSPSFLSASVGDRVTITCWASQDISSFLVWYQQKPGKAPNLLIYAASALQSGVPSRFSGSGSGTEFTLTISSLQPEDFASYYCEQLNNYPWTFGQGTKVEIKR

Output:
87
28

Hey, can you go through the list below and give me Binding Ratio (Sample over unstained MFIs) for every item?
1. H4H12857P (antibody, human IgG4 S228P, kappa, V domains shown) VH: EVQLVESGGGVVRPGGSLRLSCAASGFTFDDFDMSWVRQGPGKGLEWVSGINWHGSSTGYADSVKGRFTISRDNAKNSLYLQMSSLRAEDTALYHCVRGGTIVGATTPLDYWGQGTLVTVSS VL: DIQMTQSPSSLSASVGDRVTMTCRASRTISSYLSWYQQKSGKVPNLLIFGASSLQSGVPSRFSASGSGTDFTLIISSLQPEDFATYYCQQSYSSPLTFGGGTKVEIKR
2. H4H12899P (antibody, human IgG4 S228P, kappa, V domains shown) VH: QVQLVESGGDLVKPGGSLRLSCATSGFTFSDFYMTWIRQAPGKGLEWISYISNSGSIVKYADSVKGRFTISRDNAKNSLYLQMNSLRAEDTAIYYCARFYGDRWGQGTLVTVSS VL: DIQLTQSPSFLSASVGDRVTITCWASQGISTFLAWYQQKPGKAPKLLIYAASTLQSGVPSRFSGSGSGTDFTLTISSLQPEDFATYHCQQLNNYPWTFGQGTKVEIKR
3. H4H12874P (antibody, human IgG4 S228P, kappa, V domains shown) VH: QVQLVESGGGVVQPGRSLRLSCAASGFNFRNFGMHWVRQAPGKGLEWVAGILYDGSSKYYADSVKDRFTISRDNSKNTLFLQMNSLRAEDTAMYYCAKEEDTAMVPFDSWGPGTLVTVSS VL: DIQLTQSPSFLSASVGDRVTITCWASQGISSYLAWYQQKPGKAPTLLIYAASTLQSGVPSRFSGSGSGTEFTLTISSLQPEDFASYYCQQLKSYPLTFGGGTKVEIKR
4. H4H12858P (antibody, human IgG4 S228P, kappa, V domains shown) VH: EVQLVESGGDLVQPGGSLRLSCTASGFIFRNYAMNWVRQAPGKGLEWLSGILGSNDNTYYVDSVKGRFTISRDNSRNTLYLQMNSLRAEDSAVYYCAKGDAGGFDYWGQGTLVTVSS VL: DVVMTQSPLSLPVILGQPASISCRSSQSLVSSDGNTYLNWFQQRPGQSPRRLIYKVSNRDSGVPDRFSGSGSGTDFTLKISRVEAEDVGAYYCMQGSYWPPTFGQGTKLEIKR

Output:
[37, 18, 44, 2]
